Please provide measured pIC50 for the entries that follow.
Tested on: BT-549
assayProtocol: Growth inhibition of human BT-549 cells assessed as cell viability measured after 4 days by WST8 assay
Type: functional, cell-based
measurementConditions: BT-549, 96 h
Give bare numbers, as −log10 of the molar value.

{"molecule": "CC(C)c1cnn2c(NCc3ccc(NC(=O)CCCCCCCOc4cccc5c4CN(C4CCC(=O)NC4=O)C5=O)cc3)nc(OC3CCN(C)CC3)nc12 (stereo not drawn)", "observationType": "pIC50", "recordedValue": 7.40}
{"molecule": "CC(C)c1cnn2c(NCc3ccc(NC(=O)CCCCCCOc4cccc5c4C(=O)N(C4CCC(=O)NC4=O)C5=O)cc3)nc(OC3CCN(C)CC3)nc12 (stereo not drawn)", "observationType": "pIC50", "recordedValue": 6.77}

Consider the additional molecule presented here.
Enquiry: What pIC50 value was documented for this molecule, CC[C@@H](CO)Nc1cc(NCc2ccc(NC(=O)N3CCN(CCCCCc4cccc5c4CN(C4CCC(=O)NC4=O)C5=O)CC3)cc2)n2ncc(C(C)C)c2n1 (stereo partly drawn) ?
Return: 4.87

The values you see were collected from ChEMBL document CHEMBL4828763.
